Origin of values: the supplement of paper PMC10567573

B1: PLAGL1 (parent)
chain: EKPPSGTKEKKHQCDHCERCFYTR

Variants of: B1
Experiment notes: protein stability index of a GFP-peptide fusion (GPS, HEK-293T) (PSI 1-6); higher = more stable;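 also: lentivirally expressed fusions sorted by FACS into six bins by GFP to DsRed ratio, PSI derived from sequencing read proportions per bin multiplied by bin number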
Particulars: c terminus: a fixed tail appended
Experimental readout: protein stability index
The reply should be a number, written without any unit.

Consider the reported protein stability index for these variants:
F21L | 4.08
F21G | 4.32
G6H | 3.68
C20Q | 2.37
K2N | 4.05
G6V | 4
P4R | 4.31
K11N | 3.63

For K11G , what is its reported protein stability index?
4.29

For H16G , what is its reported protein stability index?
4.67

For P3W , what is its reported protein stability index?
3.13

For K8W , what is its reported protein stability index?
3.35

For E18G , what is its reported protein stability index?
3.22

For E18Y , what is its reported protein stability index?
2.92

For R19P , what is its reported protein stability index?
3.3

For F21P , what is its reported protein stability index?
3.75
